Reference source for all entries: PubChem BioAssay (NCI)

tested on: CAKI-1 renal; experiment: NCI-60 one-dose screen, 48 h; conditions: 10 µM unless noted
This is part of a sample that, as a whole, favours compounds with a hit. Of some 83,000 tested, about 20% had one in any assay. The source made the active and inactive calls. How the source made its calls: active means growth percent below 10; inactive means the rest.
Labels: 1 (yes) (active), 0 (no) (inactive)

compound="COc1cc(C2Cc3ncccc3-c3[nH]c(=O)c4cccnc4c32)cc(OC)c1OC (stereo unspecified)" class_assignment="0 (no)"
compound=CN1CCN(CCOc2ccc(-c3cnc4c(-c5ccc(C(F)(F)F)cc5)cnn4c3)cc2)CC1 class_assignment="0 (no)"
compound=Fc1ccc(COc2ccc(Nc3ncnc4sc5c(c34)CCCC5)cc2)cc1 class_assignment="0 (no)"
compound="CCN1C(=O)N(CC)C2C1NN=c1s/c(=C\\c3ccccc3Br)c(=O)n12 (stereo unspecified)" class_assignment="0 (no)"
compound=C/C(=N\O)C(=O)NCCCCCC(=O)Nc1ccccc1 class_assignment="0 (no)"
compound=O=C1c2cc3c(cc2-c2c1c1ccc(Cl)cc1c(=O)n2C[C@H](O)CO)OCO3 class_assignment="1 (yes)"
compound=COc1cccc(OC)c1Oc1c(-c2nc3ccccc3s2)c(C)nn1-c1ccccc1 class_assignment="0 (no)"
compound=COc1ccc(OC)c(Nc2nnc(-c3ccc(Cl)cc3)o2)c1 class_assignment="0 (no)"
compound="CCC(C)Nc1ccc(NC(C)CC)cc1 (stereo unspecified)" class_assignment="0 (no)"
compound="O=C1Nc2ccccc2C2c3cccn3-c3ccccc3N12 (stereo unspecified)" class_assignment="0 (no)"
compound=COc1ncc2cc1NS(=O)(=O)c1cccc(c1)C(=O)NCC1=CC=C(S1)c1ncnc3c1SC2=C3C class_assignment="1 (yes)"
compound="CC1=NN(c2ccc(Cl)cc2)CC1(C)N=O (stereo unspecified)" class_assignment="0 (no)"
compound=Cn1ccnc1C(=O)/C=C/c1ccc(C(=O)Nc2ccc(F)cc2)cc1 class_assignment="0 (no)"
compound=COc1ccc2nc3ccccc3c(NCc3ccccc3)c2c1 class_assignment="0 (no)"
compound=COC(=O)/C=C1/SC(=Nc2cccc(Cl)c2)N(CCc2c[nH]c3ccc(O)cc23)C1=O class_assignment="0 (no)"
compound=O=C(Nc1ccc(F)cc1)Nc1ccccc1CNc1nc(Nc2ccc(OCCN3CCCC3)cc2)ncc1Cl class_assignment="0 (no)"
compound=O=C(CCl)Nc1ccc2c(Nc3cc(O)ccc3Cl)ncnc2c1 class_assignment="1 (yes)"
compound=O=C(N/N=C/c1ccc(Cl)cc1Cl)c1ccc2nc(-c3ccc(Cl)cc3)[nH]c2c1 class_assignment="0 (no)"
compound=Cn1c(=O)c2c(c3ccccc31)OC(N)=C(C#N)C21C(=O)c2ccccc2C1=O class_assignment="0 (no)"
compound=Cc1nn(-c2ccccc2)c(/N=C/N(C)C)c1/C=C/C(=O)c1ccc(Cl)cc1 class_assignment="0 (no)"
compound=CCN(CC)CCOc1nc2c3ccc(Cl)cc3nn2c2ccccc12 class_assignment="0 (no)"

* * *

test system: SK-MEL-5 melanoma; assay: NCI-60 one-dose screen, 48 h; conditions: 10 µM unless noted
The panel holds about 83,000 compounds, 20% with a hit somewhere; the sample as a whole holds those more often. Calls of active or inactive are those of the source. How the source made its calls: active means growth percent below 10; inactive means the rest.
Labels: label 1 for active, label 0 for inactive

molecule=COC(=O)c1ccc2c(c1)c1c(C)c3ccncc3c(C)c1n2C class_assignment="label 0"
molecule="COc1cc(C2=NN(C(C)=O)C(c3ccc(N(C)C)cc3)C2)cc(OC)c1OC (stereo not drawn)" class_assignment="label 0"
molecule=O=C1NC(=O)c2c1c1c3ccccc3[nH]c1c1oc3ccc(F)cc3c21 class_assignment="label 0"
molecule=COc1cc2c(/C=C3\C(=O)Nc4ccccc43)c(C(=O)O)[nH]c2cc1C class_assignment="label 0"
molecule=Cc1c2ccccc2nc2c1ccc1cccnc12 class_assignment="label 0"
molecule=O=C(Nc1ccccc1O)c1ccccc1Nc1ccnc(C(F)(F)F)c1 class_assignment="label 0"
molecule=C=CCN=C(N)SCCCCCCSC(N)=NCC=C class_assignment="label 0"
molecule=CCC(CC)(N(CC(=O)O)CC(=O)O)C(CC)(CC)N(CC(=O)O)CC(=O)O class_assignment="label 0"
molecule=O=C(Nc1nc(C(=O)N2CCN(C(c3ccccc3)c3ccccc3)CC2)cs1)c1ccc(NC2CCCCC2)c([N+](=O)[O-])c1 class_assignment="label 0"
molecule=Cc1ccc(-c2csc(NC(=O)N3CCN(c4cc5c(cc4F)c(=O)c(C(=O)O)cn5C4CC4)CC3)n2)cc1 class_assignment="label 1"
molecule=CCOC(=O)c1c(-c2ccccc2)n2c(=O)cc(C)c3c(O)c(O)cc1c32 class_assignment="label 0"
molecule=CCOc1ccc(NC(=O)c2cc(OC)c(OC)c(OC)c2)cc1 class_assignment="label 0"
molecule=Nc1c(C(=O)Nc2cccc3ncccc23)sc2nc3c(cc12)C(=O)CCC3 class_assignment="label 0"
molecule=CC[C@H](CC[C@@H](C)[C@H]1CC[C@H]2[C@@H]3CC[C@@H]4CC(=O)/C(=C\c5ccncc5)C[C@]4(C)[C@H]3CC[C@]12C)C(C)C class_assignment="label 0"
molecule=CCOC(=O)N1CCN(S(=O)(=O)c2oc(-c3ccc(Cl)cc3)nc2C#N)CC1 class_assignment="label 0"
molecule=S=c1[nH]c2cc(Cl)ccc2o1 class_assignment="label 0"
molecule=C=CC(=O)N1CCN(c2ccc3cccc(NC(=O)c4cnc(C)cn4)c3n2)CC1 class_assignment="label 0"
molecule="C[Se]C(=O)CC1=C2C=C(F)C=CC2/C(=C\\c2ccc(S(C)=O)cc2)C1C (stereo not drawn)" class_assignment="label 1"
molecule=CN1CCN(CCCOc2ccc3ncnc(Nc4ccc(Oc5cccc(F)c5)c(Cl)c4)c3c2)CC1 class_assignment="label 1"
molecule=N#Cc1c(Nc2ccc(F)cc2)n[nH]c1-c1cccs1 class_assignment="label 0"
molecule=O=C(/C=C/c1cccc(Cl)c1)c1cccc(OCCCCOc2cccc(C(=O)/C=C/c3cccc(Cl)c3)c2)c1 class_assignment="label 0"
molecule=Cc1cc(N2CCCCC2)nc(N2CCN(CC(=O)Nc3ccc4c(ccn4Cc4ccccc4)c3)CC2)n1 class_assignment="label 0"
molecule=Fc1ccc(COc2ccc(Nc3ncnc4sc5c(c34)CCCC5)cc2)cc1 class_assignment="label 0"
molecule=C=NNc1ccccc1 class_assignment="label 0"
molecule=COc1cc2c3c(n(CCCCNCCCn4c5c(c6cc(OC)c(OC)cc6c4=O)C(=O)c4cc6c(cc4-5)OCO6)c(=O)c2cc1OC)-c1cc2c(cc1C3=O)OCO2 class_assignment="label 0"
molecule=C#CC#CC#CC#CC#CC#CC#CC#CC[C@H]1OC[C@@H](COC(=O)O[C@@H](C(=O)O[C@H]2C[C@@]3(O)[C@@H](OC(=O)c4ccccc4)[C@@H]4[C@]5(OC(C)=O)CO[C@@H]5C[C@H](O)[C@@]4(C)C(=O)[C@H](OC(C)=O)C(=C2C)C3(C)C)[C@@H](NC(=O)c2ccccc2)c2ccccc2)O1 class_assignment="label 0"
molecule=Cc1cc(C(=O)Nc2cc(Nc3ncccc3-c3ncnc4nc[nH]c34)ccc2F)cc(C(F)(F)F)c1 class_assignment="label 0"
molecule="COc1ccc(C(c2cc(OC)c(OC)c(OC)c2)N2CCN(Cc3ccccc3)CC2)cc1 (stereo not drawn)" class_assignment="label 0"
molecule=COc1ccccc1NC(=O)c1ccc(/C=C/C(=O)c2nccn2C)cc1 class_assignment="label 1"
molecule=Fc1ccc(CNc2c3ccccc3nc3ccccc23)cc1 class_assignment="label 0"
molecule=CC(C)CSc1oc(-c2ccccc2)nc1S(=O)(=O)c1ccccc1 class_assignment="label 0"
molecule=Cc1[nH]c(/C=C/C(=O)c2ccc(C(F)(F)F)c(F)c2)c(C)c1C(=O)NCC(C)C class_assignment="label 0"
molecule=O=C1NC(=Nc2ccc(O)cc2)S/C1=C\c1cccs1 class_assignment="label 0"
molecule=CCCCCCCCCCCCCCCCCCOc1ccccc1CC(=O)NCC[N+]1(C)CCOCC1 class_assignment="label 0"
molecule=COc1cc2c3c(c1O)-c1ccccc1[C@@H]1OC(=O)N(CC2)[C@H]31 class_assignment="label 0"
molecule="O=C1CCC(C(=O)NN(c2ccccc2)c2ccccc2)N1 (stereo not drawn)" class_assignment="label 0"
molecule="CN(Cc1cnc2nc(N)nc(N)c2n1)c1c(Cl)cc(C(=O)NC(CCC(=O)O)C(=O)O)cc1Cl (stereo not drawn)" class_assignment="label 0"
molecule=N#CC(C#N)N=Nc1ccc(Cl)cc1Cl class_assignment="label 0"

* * *

tested on: ACHN renal; test: NCI-60 one-dose screen, 48 h; details: 10 µM unless noted
About 83,000 compounds went through this panel and 20% of them were active in at least one assay; those are over-represented in the sample as a whole. Activity calls are given as the source filed them. Rule for the calls: active = growth percent below 10; inactive = the rest.
Classes used: active, inactive

compound=Cn1c(=O)c2c(c3ccccc31)OC(N)=C(C#N)C21C(=O)c2ccccc2C1=O target_under_test="ACHN renal" class_assignment=inactive
compound=O=C1NC(=O)c2c1c1c3ccccc3[nH]c1c1oc3ccc(F)cc3c21 target_under_test="ACHN renal" class_assignment=inactive
compound="O=C(CN1C(=O)NC2NC(=O)NC21)N/N=C/c1ccc(Cl)cc1Cl (centres undefined)" target_under_test="ACHN renal" class_assignment=inactive
compound="COC(=O)/C(CCC=C(C)C)=C1\\[C@@H](OC(C)=O)C[C@@]2(C)[C@H]1CC(=O)[C@H]1[C@@]3(C)CCC(N4CCCC4)[C@@H](C)[C@@H]3CC[C@@]12C (some centres undefined)" target_under_test="ACHN renal" class_assignment=inactive
compound=Cn1cc(-c2nc(-c3c[nH]c4ccncc34)cs2)c2cc(Br)ccc21 target_under_test="ACHN renal" class_assignment=active
compound=COCCCOc1cc(C[C@@H](C[C@H](N)[C@@H](O)C[C@H](C(=O)NCC(C)(C)C(N)=O)C(C)C)C(C)C)ccc1OC target_under_test="ACHN renal" class_assignment=inactive
compound=O=C1NC(=O)c2c1c1c3ccccc3[nH]c1c1oc3cc(Br)ccc3c21 target_under_test="ACHN renal" class_assignment=inactive
compound="COc1ccc(-c2cc(C(=O)N3N=C(c4ccc(N)cc4)CC3c3ccccc3)c3ccccc3n2)cc1 (centres undefined)" target_under_test="ACHN renal" class_assignment=inactive
compound=O=C1/C(=C/c2ccc(C(F)(F)F)cc2)COc2ccc(O)cc21 target_under_test="ACHN renal" class_assignment=inactive
